# assay-info: thioesterase activity (production of TNB at 412 nm)
# Format: biochemical
# measurement-context: crude cell extract; 200 μM substrate; expressed from pCA24N
Would you kindly list Specific activities of selected thioesterases on Crotonyl-CoA for each of these molecules?
Answer in μmol/mg protein/min, number only, no unit symbol.

Specific activities of selected thioesterases on Crotonyl-CoA reported for this molecule YdiI: E. coli Acyl-CoA thioesterase (protein, UniProt P77781 1-136, looked up) 1,4-dihydroxy-2-naphthoyl-CoA …: MIWKRKITLEALNAMGEGNMVGFLDIRFEHIGDDTLEATMPVDSRTKQPFGLLHGGASVVLAESIGSVAGYLCTEGEQKVVGLEINANHVRSAREGRVRGVCKPLHLGSRHQVWQIEIFDEKGRLCCSSRLTTAIL : 0.078

Specific activities of selected thioesterases on Crotonyl-CoA reported for this molecule FadM: E. coli long-chain acyl-CoA thioesterase (protein, UniProt P77712 1-132, looked up) Long-chain acyl-CoA …: MQTQIKVRGYHLDVYQHVNNARYLEFLEEARWDGLENSDSFQWMTAHNIAFVVVNININYRRPAVLSDLLTITSQLQQLNGKSGILSQVITLEPEGQVVADALITFVCIDLKTQKALALEGELREKLEQMVK : 0.0017

Specific activities of selected thioesterases on Crotonyl-CoA reported for this molecule TesB: E. coli thioesterase II (protein, UniProt P0AGG2 2-286, looked up) Acyl-CoA thioesterase 2: SQALKNLLTLLNLEKIEEGLFRGQSEDLGLRQVFGGQVVGQALYAAKETVPEERLVHSFHSYFLRPGDSKKPIIYDVETLRDGNSFSARRVAAIQNGKPIFYMTASFQAPEAGFEHQKTMPSAPAPDGLPSETQIAQSLAHLLPPVLKDKFICDRPLEVRPVEFHNPLKGHVAEPHRQVWIRANGSVPDDLRVHQYLLGYASDLNFLPVALQPHGIGFLEPGIQIATIDHSMWFHRPFNLNEWLLYSVESTSASSARGFVRGEFYTQDGVLVASTVQEGVMRNHN : 0.010

Value source: patent US9994881B2
